# Test system: pigweed
# assay.info: Test A postemergence
# Type: in vivo, Amaranthus retroflexus
# setup.conditions: 500 g ai/ha, 0 to 100 scale where 0 is no effect and 100 is complete control
# Lookup of reported Plant response rating, Pigweed keyed by entry
Just the number, please, no unit attached.

[
  {
    "smiles.record": "FC(F)c1cnn(-c2ccccc2Oc2ncc(Br)cn2)c1",
    "recorded.result": 100
  },
  {
    "smiles.record": "CS(=O)(=O)c1cccc(Oc2ncc(Cl)cn2)c1-n1cc(Br)cn1",
    "recorded.result": 0
  },
  {
    "smiles.record": "N#Cc1cnn(-c2c(C#N)cccc2Oc2ncc(I)cn2)c1",
    "recorded.result": 50
  },
  {
    "smiles.record": "CNN=Cc1cccc(Oc2ncc(Cl)cn2)c1-n1cc(Br)cn1",
    "recorded.result": 100
  },
  {
    "smiles.record": "C#Cc1cnn(-c2ccccc2Oc2ncc(Cl)cn2)c1",
    "recorded.result": 100
  },
  {
    "smiles.record": "COc1cnn(-c2c(C#N)cccc2Oc2ncc(Cl)cn2)c1",
    "recorded.result": 100
  },
  {
    "smiles.record": "FC(F)c1cccc(Oc2ncc(Br)cn2)c1-n1cc(Br)cn1",
    "recorded.result": 100
  },
  {
    "smiles.record": "O=Cc1cccc(Oc2ncc(F)cn2)c1-n1cc(Cl)cn1",
    "recorded.result": 0
  }
]

The molecule listed as "C=C(C)c1cccc(Oc2ncc(Cl)cn2)c1-n1cc(Br)cn1" has a reported Plant response rating, Pigweed of 100

The molecule listed as "N#Cc1cccc(Oc2ncc(Cl)cn2)c1-n1cc(Br)cn1" has a reported Plant response rating, Pigweed of 100

====

# Lookup of reported Pigweed plant response rating keyed by entry
# Test system: pigweed
# assay.info: Test A preemergence
# Type: in vivo, Amaranthus retroflexus
# setup.conditions: 1000 g ai/ha, 0 to 100 scale, 0 no effect, 100 complete control, approx. 10 days
Just the number, please, no unit attached.

[
  {
    "smiles.record": "N#CCOc1cccc(Oc2ncc(Cl)cn2)c1-n1cc(Br)cn1",
    "Pigweed plant response rating": 90
  }
]

The compound listed as "C[Si](C)(C)c1cn(-c2ccccc2Oc2ncc(Cl)cn2)nn1" has a reported Pigweed plant response rating of 70

The compound listed as "NC(=O)c1cnn(-c2ccccc2Oc2ncc(Cl)cn2)c1" has a reported Pigweed plant response rating of 60

The compound listed as "CCOC(=O)c1cn(-c2ccccc2Oc2ncc(Cl)cn2)nn1" has a reported Pigweed plant response rating of 0

The compound listed as "Clc1cnc(Oc2ccccc2-n2ccnn2)nc1" has a reported Pigweed plant response rating of 100

====

# Test system: blackgrass
# assay.info: Test C postemergence
# Format: in vivo, Alopecurus myosuroides
# setup.conditions: 125 g ai/ha, postemergence; visual rating, scale 0 to 100 (0 no effect, 100 complete control)
measured.quantity: Plant response rating, Blackgrass
Just the number, please, no unit attached.

Example molecules with recorded Plant response rating, Blackgrass:
[
  {
    "smiles.record": "N#Cc1cccc(Oc2ncc(Cl)cn2)c1-n1cc(-n2ccc(C(F)(F)F)n2)cn1",
    "Plant response rating, Blackgrass": 5
  },
  {
    "smiles.record": "N#Cc1cnn(-c2c(Oc3ncc(Cl)cn3)cccc2C(F)F)c1",
    "Plant response rating, Blackgrass": 20
  }
]

Below: the item to evaluate.
The molecule listed as "FC(F)(F)c1cnn(-c2c(Cl)cccc2Oc2ncc(Cl)cn2)c1" has a reported Plant response rating, Blackgrass of 30
